The measured values listed here are drawn from paper PMC5540273.

Test system: PFTK1
Construct: gene CDK14
Conditions: concentration: 1 μM, replicates: in singlicate; n = 1;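 note: KINOMEscan kinase panel screen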
ATTRIBUTE_MEASURED: %Inh (%)

>>> quantitative_result("Nc1ncc(-c2ccc3nccc(-c4ccncc4)c3c2)cc1S(=O)(=O)N1CCOCC1")
31
>>> quantitative_result("Cl.c1ccc(-c2ccc3c(Nc4ccc5[nH]ncc5c4)ccnc3c2)nc1")
19
>>> quantitative_result("Nc1ncnc2c1nc(-c1ccccc1)n2-c1ccccc1")
25
>>> quantitative_result("Cc1cccc(NC(=O)Nc2ccc(Oc3ncnc4ccn(C)c34)cc2)c1")
0
>>> quantitative_result("COc1cccc(C2=C(Nc3ccc(Cl)c(C(=O)O)c3)C(=O)NC2=O)c1")
26
>>> quantitative_result("O=C(Nc1n[nH]c2cc(-c3ccoc3)ccc12)C1CC1")
29
>>> quantitative_result("COc1cc(Nc2nccc(N3CCC(NC(=O)Nc4cccc(C(C)=O)c4)C3)n2)cc(OC)c1OC (stereo not drawn)")
23
>>> quantitative_result("O=C(Nc1ccccc1F)NC1CCN(c2ccnc(Nc3ccc(F)cc3)n2)CC1")
15
>>> quantitative_result("c1ccc(-c2n[nH]cc2Nc2ccnc3ccccc23)nc1")
18

* * *

# Lookup of reported %Inh keyed by entry
System: CAMKK2
Settings: concentration: 1 μM, replicates: in singlicate; n = 1
ATTRIBUTE_MEASURED: %Inh

>>> result("COc1ccc(CNC(=O)NC2CCN(c3ccnc(Nc4ccc(F)cc4)n3)CC2)cc1")
"16%"
>>> result("O=C(Nc1cccc(-c2nn3ccccc3c2-c2ccnc(Nc3cccc(C(F)(F)F)c3)n2)c1)c1c(F)cccc1F")
"3%"
>>> result("CN(c1ccc(NC(=O)Nc2cc(C(F)(F)F)ccc2F)cc1)c1ccnc(Nc2ccc(S(N)(=O)=O)cc2)n1")
"15%"
>>> result("Nc1n[nH]c2cnc(-c3ccccc3)cc12")
"0%"
>>> result("CN(C)Cc1ccc(-c2ccc3c(Nc4ccc(Oc5ccccn5)cc4)ccnc3c2)o1")
"0%"
>>> result("Cc1ccc(S(=O)(=O)Nc2ccc(Nc3nccc(Nc4cccc5[nH]ncc45)n3)cc2)cc1")
"9%"
>>> result("CN(C)S(=O)(=O)c1cc(-c2ccc3nccc(-c4cccc(S(N)(=O)=O)c4)c3c2)cnc1N")
"47%"
>>> result("COc1cc(Nc2ncc3c(C)nc(-c4cc5ccccc5[nH]4)n3n2)cc(OC)c1OC")
"9%"

* * *

Tested on: MYO3B
Conditions: concentration: 1 μM, replicates: in singlicate; n = 1
ATTRIBUTE_MEASURED: %Inh

>>> result("CCc1ccc(-c2ccc3c(c2)-c2c(cnn2C)S(=O)(=O)N3C)cc1")
"25%"
>>> result("Cn1cc(-c2ccc3c(c2)CCN3C(=O)Cc2cccc(Cl)c2)c2c(N)ncnc21")
"21%"
>>> result("COc1cc2c(cc1OCCN1CCNCC1)ncc1c3ccc(C#N)cc3[nH]c21")
"0%"
>>> result("COc1ccc(Nc2nccc(NCCNC(=O)c3cc4ccccc4s3)n2)cc1")
"0%"
>>> result("CC(C)(C)c1ccc2nccc(Nc3cccc(O)c3)c2c1")
"5%"
>>> result("CN(c1ccc(NC(=O)Nc2cc(C(F)(F)F)ccc2F)cc1)c1ccnc(Nc2ccc(S(N)(=O)=O)cc2)n1")
"37%"
>>> result("C[C@@H]1CC[C@@H](C(=O)Nc2ccccc2)CN1c1cc(-c2ccc3c(N)n[nH]c3c2)nc(N)n1")
"0%"
>>> result("CCS(=O)(=O)c1ccc(OC)c(Nc2nccc(-c3c(-c4cccc(NC(=O)c5c(F)cccc5F)c4)nn4ncccc34)n2)c1")
"6%"
>>> result("CCn1c(-c2nonc2N)nc2c(C#CC(C)(C)O)ncc(OCCCCN)c21.O=C(O)C(F)(F)F.O=C(O)C(F)(F)F")
"5%"
>>> result("O=C(Nc1cccc(-c2nn3ccccc3c2-c2ccnc(Nc3cccc(C(F)(F)F)c3)n2)c1)c1c(F)cccc1F")
"0%"
>>> result("Cc1cccc(NC(=O)Nc2ccc(Oc3ncnc4ccn(C)c34)cc2)c1")
"5%"
>>> result("COc1cccc(C2=C(Nc3ccc(Cl)c(C(=O)O)c3)C(=O)NC2=O)c1")
"0%"
>>> result("CN1CCN(CCCNc2nccc(-c3c(-c4ccc(F)cc4)nn4cc(C(F)(F)F)ccc34)n2)CC1")
"0%"
>>> result("O=C(Nc1cccc(-c2nn3ccccc3c2-c2ccnc(Nc3cccc(F)c3)n2)c1)c1c(F)ccc(F)c1Cl")
"0%"
>>> result("Cc1ccc(S(=O)(=O)Nc2ccc(Nc3nccc(Nc4cccc5[nH]ncc45)n3)cc2)cc1")
"0%"
>>> result("COc1ccc(CNC(=O)NC2CCN(c3ccnc(Nc4ccc(F)cc4)n3)CC2)cc1")
"0%"
>>> result("O=C(Nc1cccc(Oc2ccc3nc(NC(=O)C4CC4)cn3n2)c1)c1ccccc1C(F)(F)F")
"0%"
>>> result("CC(=O)Nc1nc2cnc(Nc3cc(NC(=O)c4cccc(C5(C#N)CC5)c4Cl)ccc3C)nc2s1")
"0%"
>>> result("CSc1cccc2c(-c3ccncn3)c(-c3ccc(F)cc3)nn12")
"0%"
>>> result("CC(C)c1nc(-c2cccc(NS(=O)(=O)c3c(F)cccc3F)c2F)c(-c2ccnc(Nc3ccc(N4CCOCC4)nc3)n2)s1")
"65%"
>>> result("O=C(O)C(F)(F)F.O=C(O)C(F)(F)F.O=c1[nH]ccc2nc(N[C@@H]3CCCNC3)nc(Nc3ccc(S(=O)(=O)N4CCOCC4)cc3)c12")
"0%"
>>> result("COc1ccc(Nc2nccc(N3CCC(NC(=O)Nc4cccc(OC)c4)C3)n2)cc1 (centres unmarked)")
"0%"
>>> result("Cc1cccc(Nc2nc(N[C@H]3CCNC3)ncc2C(N)=O)c1.Cl")
"0%"
>>> result("Cc1occc1-c1ncc(OC[C@@H](N)Cc2c[nH]c3ccccc23)cc1-c1ccc2[nH]nc(C)c2c1.O=C(O)C(F)(F)F")
"38%"
>>> result("COc1cc(Nc2nccc(N3CCC(NC(=O)Nc4cccc(C(C)=O)c4)C3)n2)cc(OC)c1OC (centres unmarked)")
"0%"
>>> result("Cn1cc(-c2[nH]c3cc(NC(=O)[C@H](N)C4CCCCC4)cc4c3c2C=NNC4=O)cn1")
"0%"
>>> result("CN(C)S(=O)(=O)c1cc(-c2ccc3nccc(-c4cccc(S(N)(=O)=O)c4)c3c2)cnc1N")
"1%"
>>> result("COC(=O)Nc1nc2ccc(Oc3ccc(NC(=O)Nc4cc(C(F)(F)F)ccc4F)cc3)cc2n1C.Cl")
"0%"
>>> result("c1ccc(-c2n[nH]cc2Nc2ccnc3ccccc23)nc1")
"0%"
>>> result("Nc1ncnc2c1nc(-c1ccccc1)n2-c1ccccc1")
"38%"
>>> result("Cl.Cl.NCC(C(=O)Nc1cc(Br)c(-c2ccnc3[nH]ccc23)s1)c1ccccc1 (centres unmarked)")
"0%"
>>> result("O=C(Nc1n[nH]c2cc(-c3ccoc3)ccc12)C1CC1")
"0%"

* * *

Test system: MEK4
Construct: gene MAP2K4
Details: concentration: 1 μM, replicates: in singlicate; n = 1
ATTRIBUTE_MEASURED: %Inh

>>> result("Fc1ccc(-c2ncn(C3CCNCC3)c2-c2ccnc(Oc3ccc(-c4ccccc4)cc3)n2)cc1")
"15%"
>>> result("Cc1cccc(NC(=O)Nc2ccc(Oc3ncnc4ccn(C)c34)cc2)c1")
"0%"
>>> result("CC(=O)Nc1nc2cnc(Nc3cc(NC(=O)c4cccc(C5(C#N)CC5)c4Cl)ccc3C)nc2s1")
"5%"
>>> result("c1ccc(-c2n[nH]cc2Nc2ccnc3ccccc23)nc1")
"92.8%"
>>> result("Cc1ccc(F)c(C(=O)Nc2cccc(-c3nn4ccccc4c3-c3ccnc(Nc4cccc(F)c4)n3)c2)c1F")
"37%"
>>> result("COc1ccc(Nc2nccc(N3CCC(NC(=O)Nc4cccc(OC)c4)C3)n2)cc1 (centres unmarked)")
"24%"
>>> result("COc1cc(Nc2nccc(N3CCC(NC(=O)c4cc5ccccc5s4)C3)n2)cc(OC)c1OC (centres unmarked)")
"0%"
>>> result("C[C@@H](Oc1cc(-n2cnc3cc(-c4ccnc(NCCS(C)(=O)=O)c4)ccc32)sc1C(N)=O)c1ccccc1Cl")
"26%"
>>> result("Nc1ncnc2c1nc(-c1ccccc1)n2-c1ccccc1")
"35%"
>>> result("COc1cccc(-c2ccc3c(NC(=O)C4CC4)n[nH]c3n2)c1")
"17%"
>>> result("FC(F)(F)c1ccc(/C=C/c2cncnc2Nc2ccc3[nH]c(Cc4ccccc4)nc3c2)cc1")
"0%"
>>> result("Cl.Cl.NCC(C(=O)Nc1cc(Br)c(-c2ccnc3[nH]ccc23)s1)c1ccccc1 (centres unmarked)")
"11%"
>>> result("c1ccc(Oc2ccc(Nc3ccnc4cc(-c5ccc(CNCCN6CCOCC6)o5)ccc34)cc2)nc1")
"0%"
>>> result("Nc1ncc(-c2ccc3nccc(-c4ccncc4)c3c2)cc1S(=O)(=O)N1CCOCC1")
"52%"
>>> result("COc1cc(Nc2nccc(-c3c(-c4cccc(NC(=O)c5c(F)cccc5F)c4)nn4ncccc34)n2)cc(OC)c1OC")
"46%"
>>> result("Cl.c1ccc(-c2ccc3c(Nc4ccc5[nH]ccc5c4)ccnc3c2)nc1")
"0%"
>>> result("CCc1ccc(-c2ccc3c(c2)-c2c(cnn2C)S(=O)(=O)N3C)cc1")
"6%"
>>> result("O=C(NC1CCN(c2ccnc(Nc3ccc(F)cc3)n2)C1)c1cc2ccccc2s1 (centres unmarked)")
"20%"
>>> result("Cc1occc1-c1ncc(OC[C@@H](N)Cc2c[nH]c3ccccc23)cc1-c1ccc2[nH]nc(C)c2c1.O=C(O)C(F)(F)F")
"43%"
>>> result("COC(=O)Nc1nc2cc(Oc3ccc(NC(=O)Nc4cc(C(F)(F)F)ccc4F)cn3)ccc2[nH]1.Cl.Cl")
"0%"
>>> result("CC(=O)N1CCN(c2ccc(Nc3nccc(-c4sc(C(C)C)nc4-c4cccc(NS(=O)(=O)c5cccc(Cl)c5)c4)n3)cn2)CC1")
"99.2%"
>>> result("Cl.c1ccc(-c2ccc3c(Nc4ccc5[nH]ncc5c4)ccnc3c2)nc1")
"0%"
>>> result("CN(C)Cc1ccc(-c2ccc3c(Nc4ccc(Oc5ccccn5)cc4)ccnc3c2)o1")
"26%"
>>> result("Cc1ccc(S(=O)(=O)Nc2ccc(Nc3nccc(Nc4cccc5[nH]ncc45)n3)cc2)cc1")
"10%"
>>> result("COc1cc(Nc2nccc(N3CCC(NC(=O)Nc4cccc(C(C)=O)c4)C3)n2)cc(OC)c1OC (centres unmarked)")
"55%"
>>> result("O=c1[nH]cc(-c2ccc(N3CCOCC3)cc2)c2sc(-c3cn[nH]c3)cc12")
"5%"
>>> result("CN(C)S(=O)(=O)c1cc(-c2ccc3nccc(-c4cccc(S(N)(=O)=O)c4)c3c2)cnc1N")
"27%"
>>> result("O=C(Nc1cccc(Oc2ccc3nc(NC(=O)C4CC4)cn3n2)c1)c1ccccc1C(F)(F)F")
"0%"
>>> result("CCS(=O)(=O)c1ccc(OC)c(Nc2nccc(-c3c(-c4cccc(NC(=O)c5c(F)cccc5F)c4)nn4ncccc34)n2)c1")
"25%"
>>> result("COc1ccc(CNC(=O)NC2CCN(c3ccnc(Nc4ccc(F)cc4)n3)CC2)cc1")
"45%"
>>> result("Oc1cc(Nc2ccnc3cc(I)ccc23)ccc1F")
"34%"
>>> result("COc1cccc(NC(=O)NC2CCN(c3ccnc(Nc4cc(OC)c(OC)c(OC)c4)n3)C2)c1 (centres unmarked)")
"12%"
